subjectOfTest: T1, synthetic non-modified human Hepcidin-25 (human, not fully specified)
T1 construct: also called hHepcidin-25; non-biotinylated human hepcidin
T1 peptide: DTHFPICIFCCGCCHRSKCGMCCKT
methodSummary: competition ELISA: non-biotinylated human hepcidin-25 titrated against a constant concentration of mutein; free mutein detected on plate-captured biotinylated human hepcidin
# maps each entry to its IC50
endpointLabel: IC50

>>> result("lipocalin mutein of SEQ ID NO: 12 (designed binder, also called Lcn2 mutein) QDSTSDLIPAPPLSKVPLQQNFQDNQFHGKWYVVGLAGNEVLREDKDPMKMWATIYELKEDKSYNVTIVMFLAEECEYLFQTFVPGSQPGEFTLGDIKSSPGRTSGLVRVVSTNYNQHAMVFFKVVWQNREVFWITLYGRTKELTSELKKNFIRFSKSLGLPENHIVFPVPIDQCIDG")
"0.17 nM"
>>> result("lipocalin mutein of SEQ ID NO: 7 (designed binder, also called Lcn2 mutein) QDSTSDLIPAPPLSKVPLQQNFQDNQFHGKWYVVGLAGNRVLREDKDPQKMFATIYELKEDKSYNVTGVDFRTKKCLYSIGTFVPGSQPGEFTLGVIKSQPGWTSYLVRVVSTNYNQHAMVFFKTVWQNREVFWITLYGRTKELTSELKENFIRFSKSLGLPENHIVFPVPIDQCIDG")
"1.3 nM"
>>> result("lipocalin mutein of SEQ ID NO: 13, linked to PEG40 (designed binder, branched 40k PEG-maleimide on the free Cys at position 87, hNGAL mutein with Ser 87 back-mutated to Cys and PEGylated there) QDSTSDLIPAPPLSKVPLQQNFQDNQFHGKWYVVGLAGNEVLREDKDPMKMWATIYELKEDKSYNVTIVMPLAEKCEYLFQTFVPGCQPGEFTLGGIKSGPGRTSGLVRVVSTNYNQHAMVFFKVVWQNREVFWVTLYGRTKELTSELKENFIRFSKSLGLPENHIVFPVPIDQCIDG")
"0.24 nM"
>>> result("lipocalin mutein of SEQ ID NO: 3 (designed binder, also called Lcn2 mutein) QDSTSDLIPAPPLSKVPLQQNFQDNQFHGKWYVVGVAGNGLLREDKDPLKMHATIYELKEDKSYNVTRVLFVRKKCRYYISTFVPGSQPGEFTLGRIKSEPGRTSFLVRVVSTNYNQHAMVFFKMVWQNREVFWITLYGRTKELTSELKENFIRFSKSLGLPENHIVFPVPIDQCIDG")
"0.38 nM"
>>> result("lipocalin mutein of SEQ ID NO: 6 (designed binder, also called Lcn2 mutein) QDSTSDLIPAPPLSKVPLQQNFQDNQFHGKWYVVGLAGNEILREDKDPLKMWATIYELKEDKSYNVTRVQFGEKKCGYGIETFVPGSQPGEFTLGSIKSVPGGTSRLVRVVSTNYNQHAMVFFKFVWQNREVFWITLYGRTKELTSELKENFIRFSKSLGLPENHIVFPVPIDQCIDG")
"1.7 nM"
>>> result("lipocalin mutein of SEQ ID NO: 1, linked to albumine-binding domain (ABD) (SEQ ID NO: 15) (designed binder, also called ABD-fusion protein) QDSTSDLIPAPPLSKVPLQQNFQDNQFHGKWYVVGLAGNEVLREDKDPMKMWATIYELEEDKSYNVTIVMFLAKKCEYLFQTFVPGSQPGEFTLGDIKSSPGRTSGLVRVVSTNYNQHAMVFFKVVWQNREVFWITLYGRTKELTSELKENFIRFSKSLGLPENHIVFPVPIDQCIDGSAGAVDANSLAEAKVLANRELDKYGVSDYYKNLINNAKTVEGVKALIDEILAALPSAWSHPQFEK")
"0.37 nM"
